- test.name: qHTS of pediatric cancer cell lines to identify multiple opportunities for drug repurposing: Confirmatory screen for control Hh wild type fibroblast cells (AID 1347121); further: nearly all actives have a fitted effect of over 70% in size; further: potency means the concentration at half of the fitted maximal effect
- measurement.context: viability qHTS; series mostly up to 45.9 µM
- Protocol: Drug repurposing or repositioning has been offered as a strategy for drug development in oncology programs. […] [1] Shen, M et al. Quantitative high-throughput phenotypic screening of pediatric cancer cell lines identifies multiple opportunities for drug repurposing. […] Cells were assayed in growth media at a density of 500-1,000 cells/well. […] After a 15 min incubation at room temperature, samples were analyzed for luminescence intensity using a ViewLux High-throughput CCD imager equipped with clear filters.
Results filed as inconclusive are left out. Active and inactive are the calls of the source. The call rests on the fitted dose curve; in most records, active means well fitted cell-killing curve with a large enough effect; inconclusive means small, poorly fitted or top-dose-only effect, or effect the other way; inactive means flat fitted curve, though single readings scatter. Residues, ends and D or L forms follow the SMILES beside them. *: point of attachment. Cbz = O=C(OCc1ccccc1)*
recorded.endpoint: Potency

{"columns": ["compound", "measured.value"],
 "data": [
  ["COc1ccc(S(=O)(=O)Nc2cccnc2Nc2ccc(O)cc2)cc1", "inactive"],
  ["NS(=O)(=O)OC[C@@H]1C[C@@H](n2ccc3c(N[C@H]4CCc5ccccc54)ncnc32)C[C@H]1O", "inactive"],
  ["CC(C=CC(=O)NO)=C[C@@H](C)C(=O)c1ccc(N(C)C)cc1", "6.57 µM (active)"],
  ["C[C@H]1[C@@H](OC(=O)CCC(=O)O)O[C@@H]2O[C@@]3(C)CC[C@@H]4[C@H](C)CC[C@@H]1[C@@]24OO3", "inactive"],
  ["CC(=O)SCC(Cc1ccccc1)C(=O)NCC(=O)OCc1ccccc1 (stereo not drawn)", "inactive"],
  ["COc1cc2ncnc(Nc3cccc(Br)c3)c2cc1OC", "inactive"],
  ["C[N+](C)([O-])CCNc1ccc(NCC[N+](C)(C)[O-])c2c1C(=O)c1c(O)ccc(O)c1C2=O", "inactive"],
  ["C[C@@H](Oc1ccc2[nH]nc(C=Cc3cnn(CCO)c3)c2c1)c1c(Cl)cncc1Cl", "13.1 µM (active)"],
  ["CCc1cnn2c(NCc3ccc[n+]([O-])c3)cc(N3CCCC[C@@H]3CCO)nc12", "inactive"],
  ["Cc1cnc(Nc2ccc(N3CCN(C)CC3)cc2)nc1Nc1cccc(S(=O)(=O)NC(C)(C)C)c1", "14.7 µM (active)"],
  ["C=CC(=O)Nc1cccc(Nc2nc(NC3CCC(N(C)C)CC3)nc3c2ncn3C(C)C)c1 (stereo not drawn)", "inactive"],
  ["CCCCC(=O)O[C@]1(C(=O)CO)[C@@H](C)C[C@H]2[C@@H]3CCC4=CC(=O)C=C[C@]4(C)[C@@]3(F)[C@@H](O)C[C@@]21C", "inactive"],
  ["CC(=O)ON=C1C(c2c(O)[nH]c3cc(Br)ccc23)=Nc2ccccc21", "inactive"],
  ["COc1ccc(C(C)=O)c(O)c1", "inactive"],
  ["CC(C)C[C@@H](C=O)NC(=O)[C@H](CC(C)C)NC(=O)[C@H](CC(C)C)NC(=O)OCc1ccccc1 (Cbz-Leu-Leu-Leu-aldehyde)", "5.85 µM (active)"],
  ["Cn1cc(-c2cnn3c(N)c(Br)c([C@H]4CCCNC4)nc23)cn1", "inactive"],
  ["C=C1C(=CC=C2CCC[C@]3(C)[C@@H]([C@H](C)CCCC(C)(C)O)CC[C@@H]23)C[C@@H](O)C[C@@H]1O", "inactive"],
  ["O=C(NC1CC1)c1cccc(-c2ccc3c(NC(=O)C4CC4)n[nH]c3c2)c1", "inactive"]
]}

Where do these numbers come from? They come from PubChem BioAssay (NCATS).
